# Species on record: Rattus norvegicus
# testName: DrugMatrix - Regimen: Daily Repeat
# Type: toxicity, organism-based, Sprague-Dawley
# Design: regimen Daily Repeat, gender Male, age 6-8 weeks
# cond: in vivo, iv, 0 mg/kg, 120 h, tissue Blood, dose level Control, time 5 day, vehicle 100 % SALINE
measuredMetric: ABSOLUTE SEGMENTED NEUTROPHIL

Example cases with answers are listed next.
CC[C@@]1(O)C(=O)OCc2c1cc1n(c2=O)Cc2cc3ccccc3nc2-1 :: 730.67 CELLS/uL
CN(N=O)C(=O)N[C@@H](C=O)[C@@H](O)[C@H](O)[C@H](O)CO :: 1104.67 CELLS/uL
CC1(C)S[C@@H]2[C@H](NC(=O)[C@H](NC(=O)N3CCNC3=O)c3ccccc3)C(=O)N2[C@H]1C(=O)O :: 1733.83 CELLS/uL

# evaluate next
Reported ABSOLUTE SEGMENTED NEUTROPHIL of NCC[C@H](O)C(=O)N[C@@H]1C[C@H](N)[C@@H](O[C@H]2O[C@H](CN)[C@@H](O)[C@H](O)[C@H]2O)[C@H](O)[C@H]1O[C@H]1O[C@H](CO)[C@@H](O)[C@H](N)[C@H]1O : 661 CELLS/uL

----------
# Species: Rattus norvegicus
# testName: DrugMatrix - Regimen: Daily Repeat
# Type: toxicity, organism-based, Sprague-Dawley
# Parameters: regimen Daily Repeat, gender Male, age 6-8 weeks
# cond: in vivo, po, 0 mg/kg, 72 h, tissue Plasma, route oral GAVAGE, dose level Control, time 3 day, vehicle .5 % CMC
measuredMetric: PHOSPHORUS (mg/dL)
Please state the figure in mg/dL; there is no need to write the unit.

Example cases with answers are listed next.
NCC(=O)O :: 10.08
C[C@]12CCC(=O)C=C1CC[C@@H]1[C@@H]2C(=O)C[C@@]2(C)[C@H]1CC[C@]2(O)C(=O)CO :: 11.23

Reported PHOSPHORUS of CCc1ccc(C(=O)C(C)CN2CCCCC2)cc1 (centres undefined) : 13.25

Reported PHOSPHORUS of O=C1CCc2cc(OCCCCc3nnnn3C3CCCCC3)ccc2N1 : 11.43

Reported PHOSPHORUS of CC(/C=C1\SC(=S)N(CC(=O)O)C1=O)=C\c1ccccc1 : 11.57

Reported PHOSPHORUS of Brc1ccccc1 : 12.07

----------
Recorded GLUCOSE values for a group of molecules are listed next.
# Species: Rattus norvegicus
# testName: DrugMatrix - Regimen: Daily Repeat
# Assay type: toxicity, organism-based, Sprague-Dawley
# Parameters: regimen Daily Repeat, gender Male, age 6-8 weeks
# cond: in vivo, po, 0 mg/kg, 120 h, tissue Plasma, route oral GAVAGE, dose level Control, time 5 day, vehicle .5 % CMC
Please state the figure in mg/dL; there is no need to write the unit.

Example cases with answers are listed next.
CN1CCC[C@@H]1CCO[C@](C)(c1ccccc1)c1ccc(Cl)cc1 [CLEMASTINE] :: 177.83
CN1C(C(=O)Nc2ccccn2)=C(O)c2ccccc2S1(=O)=O [PIROXICAM] :: 165.17
C[C@]12CCC(=O)C=C1CC[C@@H]1[C@@H]2C(=O)C[C@@]2(C)[C@H]1CC[C@]2(O)C(=O)CO [CORTISONE] :: 196.83
Cc1c(-c2ccccc2)oc2c(C(=O)OCCN3CCCCC3)cccc2c1=O [FLAVOXATE] :: 155.33
CC(C)[C@H](N)C(=O)OCCOCn1cnc2c(=O)[nH]c(N)nc21 [VALACYCLOVIR] :: 150.5

Reported GLUCOSE of COC(=O)c1ccc(O)cc1 [METHYLPARABEN] : 165.67

Reported GLUCOSE of CC(/C=C1\SC(=S)N(CC(=O)O)C1=O)=C\c1ccccc1 : 177.83

Reported GLUCOSE of CC[C@H]1OC(=O)[C@H](C)[C@@H](O[C@H]2C[C@@](C)(OC)[C@@H](O)[C@H](C)O2)[C@H](C)[C@@H](O[C@@H]2O[C@H](C)C[C@H](N(C)C)[C@H]2O)[C@](C)(O)C[C@@H](C)/C(=N\OCOCCOC)[C@H](C)[C@@H](O)[C@]1(C)O [ROXITHROMYCIN] : 196.83

Reported GLUCOSE of O=c1cc(-c2ccccc2)oc2c1ccc1ccccc12 [ALPHA-NAPHTHOFLAVONE] : 134.6

----------
Recorded SODIUM values for a group of compounds are listed next.
# Species: Rattus norvegicus
# testName: DrugMatrix - Regimen: Daily Repeat
# Format: toxicity, organism-based, Sprague-Dawley
# Set-up: regimen Daily Repeat, gender Male, age 6-8 weeks
# cond: in vivo, po, 10 mg/kg, 72 h, tissue Plasma, route oral GAVAGE, dose level Low, time 3 day, vehicle .5 % CMC
Please state the figure in MEQ/L; there is no need to write the unit.

Example cases with answers are listed next.
O=C1CN=C(c2ccccc2)c2cc([N+](=O)[O-])ccc2N1 [NITRAZEPAM] :: 149.6
COc1c(C)c2c(c(O)c1C/C=C(\C)CCC(=O)OCCN1CCOCC1)C(=O)OC2 [MYCOPHENOLATE MOFETIL] :: 144.23
NS(=O)(=O)c1cc2c(cc1Cl)NCNS2(=O)=O [HYDROCHLOROTHIAZIDE] :: 144.2

# evaluate next
Reported SODIUM of CC(=O)O[C@]1(C(C)=O)CC[C@H]2[C@@H]3C=C(Cl)C4=CC(=O)CC[C@]4(C)[C@H]3CC[C@@]21C [CHLORMADINONE ACETATE] : 149.35

----------
# Species on record: Rattus norvegicus
# testName: DrugMatrix - Regimen: Daily Repeat
# Assay type: toxicity, organism-based, Sprague-Dawley
# Set-up: regimen Daily Repeat, gender Male, age 6-8 weeks
# cond: in vivo, po, 0 mg/kg, 72 h, tissue Blood, route oral GAVAGE, dose level Control, time 3 day, vehicle 100 % WATER
measuredMetric: ERYTHROCYTE COUNT (x10E6/uL)
Please state the figure in x10E6/uL; there is no need to write the unit.

Example cases with answers are listed next.
CN1CCN(C(=O)OC2c3nccnc3C(=O)N2c2ccc(Cl)cn2)CC1 (stereo not given) [ZOPICLONE] :: 5.57
Nc1ccc(S(=O)(=O)Nc2ccnn2-c2ccccc2)cc1 [SULFAPHENAZOLE] :: 5.46
C[C@]12Cc3c[nH]nc3C[C@@H]1CC[C@@H]1[C@@H]2CC[C@@]2(C)[C@H]1CC[C@]2(C)O [STANOZOLOL] :: 5.38
NC(=O)c1ncn([C@@H]2O[C@H](CO)[C@@H](O)[C@H]2O)n1 [RIBAVIRIN] :: 5.71
COc1cccc(C2(O)CCCCC2CN(C)C)c1 (stereo not given) [TRAMADOL] :: 5.38

Reported ERYTHROCYTE COUNT of COc1ccc(C(CN(C)C)C2(O)CCCCC2)cc1 (stereo not given) [VENLAFAXINE] : 5.3

Reported ERYTHROCYTE COUNT of CN1CCC[C@H]1c1cccnc1 [NICOTINE] : 5.16

Reported ERYTHROCYTE COUNT of Fc1ccc([C@@H]2CCNC[C@H]2COc2ccc3c(c2)OCO3)cc1 [PAROXETINE] : 5.38

Reported ERYTHROCYTE COUNT of O=C1NC(=O)C(c2ccccc2)(c2ccccc2)N1 [PHENYTOIN] : 5.26

Reported ERYTHROCYTE COUNT of CC(CCc1ccccc1)NCC(O)c1ccc(O)c(C(N)=O)c1 (stereo not given) [LABETALOL] : 5.7

----------
Recorded MONOCYTE values for a group of compounds are listed next.
# Species on record: Rattus norvegicus
# testName: DrugMatrix - Regimen: Daily Repeat
# Assay type: toxicity, organism-based, Sprague-Dawley
# Set-up: regimen Daily Repeat, gender Male, age 6-8 weeks
# cond: in vivo, po, 10 mg/kg, 72 h, tissue Blood, route oral GAVAGE, dose level Low, time 3 day, vehicle .5 % CMC
Please state the figure in %; there is no need to write the unit.

COc1c(C)c2c(c(O)c1C/C=C(\C)CCC(=O)OCCN1CCOCC1)C(=O)OC2 [MYCOPHENOLATE MOFETIL] :: 0.33
O=C1CN=C(c2ccccc2)c2cc([N+](=O)[O-])ccc2N1 :: 0.33
NS(=O)(=O)c1cc2c(cc1Cl)NCNS2(=O)=O [HYDROCHLOROTHIAZIDE] :: 1

# evaluate next
Reported MONOCYTE of CC(=O)O[C@]1(C(C)=O)CC[C@H]2[C@@H]3C=C(Cl)C4=CC(=O)CC[C@]4(C)[C@H]3CC[C@@]21C [CHLORMADINONE ACETATE] : 0.67

----------
# Species on record: Rattus norvegicus
# testName: DrugMatrix - Regimen: Daily Repeat
# Type: toxicity, organism-based, Sprague-Dawley
# Design: regimen Daily Repeat, gender Male, age 6-8 weeks
# cond: in vivo, po, 0 mg/kg, 120 h, tissue Blood, route oral GAVAGE, dose level Control, time 5 day, vehicle .5 % CMC
measuredMetric: PLATELET COUNT (x10E3/uL)
Please state the figure in x10E3/uL; there is no need to write the unit.

Example cases with answers are listed next.
CCc1ccc(C(=O)C(C)CN2CCCCC2)cc1 (centres undefined) [EPERISONE] :: 1251.67
CC1(C)[C@H]2CC[C@]1(C)C(=O)C2 [(-)-CAMPHOR] :: 1255.5
CCOC(=O)OC(C)OC1=C(C(=O)Nc2ccccn2)N(C)S(=O)(=O)c2ccccc21 (centres undefined) [AMPIROXICAM] :: 1078
Cc1c(-c2ccccc2)oc2c(C(=O)OCCN3CCCCC3)cccc2c1=O [FLAVOXATE] :: 1229
CC(/C=C1\SC(=S)N(CC(=O)O)C1=O)=C\c1ccccc1 :: 1097.5
CC(C)[C@H](N)C(=O)OCCOCn1cnc2c(=O)[nH]c(N)nc21 [VALACYCLOVIR] :: 1196
COc1c(C)c2c(c(O)c1C/C=C(\C)CCC(=O)OCCN1CCOCC1)C(=O)OC2 [MYCOPHENOLATE MOFETIL] :: 1097.5
COC(=O)c1ccc(O)cc1 [METHYLPARABEN] :: 1248.17

# evaluate next
Reported PLATELET COUNT of C[C@]12CCC(=O)C=C1CC[C@@H]1[C@@H]2C(=O)C[C@@]2(C)[C@H]1CC[C@]2(O)C(=O)CO [CORTISONE] : 1298
